Listed here: items and their measured Population Normal (%).
Test system: HEK-293T
protocol-description: Multiplex assay against HEK293T
Assay type: toxicity, cell-based
details: human, 24 h, 1 µM, compound concentration 1 uM, replicate 2
Give the number; % is assumed, so skip it.

input: Fill in the blank: the reported Population Normal (%) of C[C@@H]1CC(=O)Nc2cccc(-c3ccc4c(c3)c(-c3cnn(C)c3)nn4C)c2N1 is ____.
output: 93

input: Fill in the blank: the reported Population Normal (%) of COC(c1ccccc1)(c1ccccc1)[C@H](Oc1nc(C)cc(C)n1)C(=O)O [AMBRISENTAN] is ____.
output: 92

input: Fill in the blank: the reported Population Normal (%) of CN1CCN2c3ccccc3Cc3ccccc3C2C1.Cl (stereo not drawn) [MIANSERIN HYDROCHLORIDE] is ____.
output: 91
